Entries and their measured LD50 at 24 h follow.
protocolSummary: in vivo
reportedConditions: mouse, in vivo, po
Where a name gives a salt, the structure may show the parent alone.
measurementName: LD50 at 24 h

>>> result("C[N+]1([O-])C[C@@H]2c3ccccc3[C@@H]3C[C@@]2(C1)c1ccccc13 (relative stereo) [Methyl-N-oxide]")
"> 324 mg/kg"
>>> result("N#Cc1ccc2c(c1)[C@]13C[C@H]2c2ccccc2[C@H]1CN(CC1CCCC1)C3 (relative stereo) [Example 85, Hydrochloride]")
"300 mg/kg"
>>> result("Oc1ccc2c(c1)[C@]13C[C@H]2c2ccccc2[C@H]1CN(CC1CCCC1)C3 (relative stereo) [Example 68, Hydrochloride]")
"> 324 mg/kg"

---

Recorded ED50 values for a group of compounds are listed next.
protocolSummary: in vivo
reportedConditions: mouse, in vivo, po
measurementName: ED50

>>> result("CCCCCCN1CC2c3ccccc3C3CC2(C1)c1ccccc13 (centres unmarked)")
"326 mg/kg"
>>> result("c1ccc2c(c1)C1CC3(CN(CCCCC4CCCCC4)CC23)c2ccccc21 (centres unmarked)")
"> 324 mg/kg"
>>> result("c1ccc2c(c1)C1CC3(CN(CCCC4CCCCC4)CC23)c2ccccc21 (centres unmarked)")
"> 324 mg/kg"
>>> result("C1=CC(CCN2CC3c4ccccc4C4CC3(C2)c2ccccc24)CC1 (centres unmarked)")
"> 324 mg/kg"
>>> result("CCC(CC)CN1CC2c3ccccc3C3CC2(C1)c1ccccc13 (centres unmarked)")
"> 324 mg/kg"

---

LD50 at 24 h for assorted molecules
protocolSummary: in vivo
reportedConditions: mouse, in vivo, po
Counter-ions that a name gives are not always drawn.
measurementName: LD50 at 24 h

>>> result("[O-][N+]1(CC2CCCC2)CC2c3ccccc3C3CC2(C1)c1ccccc13 (stereo not drawn) [Cyclopentylmethyl-N-oxide]")
"> 324 mg/kg"
>>> result("CCCCN1CC2c3ccccc3C3CC2(C1)c1ccccc13 (stereo not drawn)")
"> 324 mg/kg"
>>> result("[N-]=[N+]=Nc1ccc2c(c1)[C@]13C[C@H]2c2ccccc2[C@H]1CN(CC1CCCC1)C3 (relative stereo)")
"> 324 mg/kg"
>>> result("CC(=O)Nc1ccc2c(c1)[C@]13C[C@H]2c2ccccc2[C@H]1CN(CC1CCCC1)C3 (relative stereo) [Example 65, Hydrochloride]")
"300 mg/kg"
>>> result("C1=CCCC(CN2C[C@@H]3c4ccccc4[C@@H]4C[C@@]3(C2)c2ccccc24)CC1 (relative stereo)")
"> 324 mg/kg"
>>> result("Cc1ccc2c(c1)[C@]13C[C@H]2c2ccccc2[C@H]1CN(CC1CCCC1)C3 (relative stereo)")
"> 81 mg/kg"
>>> result("CCCCCCCCN1CC2c3ccccc3C3CC2(C1)c1ccccc13 (stereo not drawn)")
"> 324 mg/kg"
>>> result("CCCCCCN1CC2c3ccccc3C3CC2(C1)c1ccccc13 (stereo not drawn)")
"> 324 mg/kg"
>>> result("c1ccc(CN2CC3c4ccccc4C4CC3(C2)c2ccccc24)cc1 (stereo not drawn)")
"> 324 mg/kg"
>>> result("c1ccc2c(c1)[C@@H]1C[C@@]3(CN(C4CC4)C[C@H]23)c2ccccc21 (relative stereo)")
"> 324 mg/kg"
>>> result("O=[N+]([O-])c1ccc2c(c1)[C@]13C[C@H]2c2ccccc2[C@H]1CN(CC1CCCC1)C3 (relative stereo) [Example 63, Hydrochloride]")
"> 324 mg/kg"
>>> result("CC(C)(C)N1C[C@@H]2c3ccccc3[C@@H]3C[C@@]2(C1)c1ccccc13 (relative stereo)")
"300 mg/kg"
>>> result("C1=CCC(CN2CC3c4ccccc4C4CC3(C2)c2ccccc24)CC1 (stereo not drawn)")
"> 324 mg/kg"
>>> result("C1=CCC(CN2CC3c4ccccc4C4CC3(C2)c2ccccc24)=CC1 (stereo not drawn)")
"> 324 mg/kg"
>>> result("C=CCC(O)c1ccc2c(c1)[C@]13C[C@H]2c2ccccc2[C@H]1CN(CC1CCCC1)C3 (stereo partly drawn) [Example 75, Hydrochloride]")
"> 324 mg/kg"
